target: ToxT (Vibrio cholerae); construct: 6xHis fusion from pHIS-Tev plasmid, expressed in E. coli BL21(DE3), Ni-agarose purified; experiment: intrinsic tryptophan fluorescence quenching, logarithmic plot
Sequence (P0C6D6 whole entry, looked up, the tested form may be a part): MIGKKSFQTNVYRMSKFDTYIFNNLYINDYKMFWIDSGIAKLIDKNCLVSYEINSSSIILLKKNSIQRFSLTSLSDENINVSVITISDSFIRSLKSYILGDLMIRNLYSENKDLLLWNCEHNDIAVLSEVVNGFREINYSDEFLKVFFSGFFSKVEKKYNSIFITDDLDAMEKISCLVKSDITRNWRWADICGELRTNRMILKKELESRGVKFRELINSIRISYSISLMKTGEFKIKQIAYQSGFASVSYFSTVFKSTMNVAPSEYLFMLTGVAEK
quantity: Kd (µM)
Lab book: enter the figure in µM, no units written.

Query :: Please give measured Kd of the following entry: CCCC(=O)O [SB, sodium butyrate]
Result :: 2600
